Reference source: ChEMBL document CHEMBL1150740

Each entry below carries its recorded viability at 48 h, 1000 mol ratio relative to TPA.
Experiment: Cytotoxicity against human Raji cells assessed as cell viability at 1000 mol ratio after 48 hrs relative to TPA
Type: cell-based
Details: read-out: Activity
Give the quantity in %, number only.

Some solved cases for reference:
CC1(C)CC[C@]2(C(=O)O)CC[C@]3(C)C(=CC[C@@H]4[C@@]5(C)C[C@@H](O)[C@H](O)C(C)(C)[C@@H]5CC[C@]43C)[C@@H]2C1 [MASLINIC ACID] = 0
CC1(C)CC[C@]2(CO)CC[C@]3(C)C(=CC[C@@H]4[C@@]5(C)CC[C@H](O)C(C)(C)[C@@H]5CC[C@]43C)[C@@H]2C1 [ERYTHRODIOL] = 50

Which viability at 48 h, 1000 mol ratio relative to TPA value belongs to CC1(C)CC[C@]2(C(=O)O)CC[C@]3(C)C(=CC[C@@H]4[C@@]5(C)CC[C@H](O)C(C)(C)[C@@H]5CC[C@]43C)[C@@H]2C1 [OLEANOLIC_ACID] ?
60

For the compound shown here, CC(=O)OC[C@]12CCC(C)(C)C[C@H]1C1=CC[C@@H]3[C@@]4(C)CC[C@H](OC(C)=O)C(C)(C)[C@@H]4CC[C@@]3(C)[C@]1(C)CC2 , give the reported viability at 48 h, 1000 mol ratio relative to TPA.
100

Requested field: viability at 48 h, 1000 mol ratio relative to TPA. Item: COC(=O)[C@]12CCC(C)(C)C[C@H]1C1=CC[C@@H]3[C@@]4(C)C[C@@H](O)[C@H](O)C(C)(C)[C@@H]4CC[C@@]3(C)[C@]1(C)CC2 [MASLINIC ACID METHYL ESTER]
80

What value of viability at 48 h, 1000 mol ratio relative to TPA has been reported for the following compound? C=C(C)[C@@H]1CC[C@]2(CO)CC[C@]3(C)[C@H](CC[C@@H]4[C@@]5(C)CC[C@H](O)C(C)(C)[C@@H]5CC[C@]43C)[C@@H]12 [BETULIN]
100

Find the recorded viability at 48 h, 1000 mol ratio relative to TPA belonging to C=C(C)[C@@H]1CC[C@]2(C(=O)O)CC[C@]3(C)[C@H](CC[C@@H]4[C@@]5(C)CC[C@H](OC(C)=O)C(C)(C)[C@@H]5CC[C@]43C)[C@@H]12 and report it.
80

So what does the record say about viability at 48 h, 1000 mol ratio relative to TPA for CC1(C)CC[C@]2(C)CC[C@]3(C)C(=CC[C@@H]4[C@@]5(C)C(=O)CC(=O)C(C)(C)[C@@H]5CC[C@]43C)[C@@H]2C1 ?
20

For CC(=O)O[C@H]1CC[C@]2(C)[C@H]3CC=C4[C@@H]5CC(C)(C)CC[C@]5(CO)CC[C@@]4(C)[C@]3(C)CC[C@H]2C1(C)C , what is its reported viability at 48 h, 1000 mol ratio relative to TPA?
70

Record request: viability at 48 h, 1000 mol ratio relative to TPA value, item CC(=O)O[C@@H]1C[C@]2(C)[C@H]3CC=C4[C@@H]5CC(C)(C)CC[C@]5(C(=O)O)CC[C@@]4(C)[C@]3(C)CC[C@H]2C(C)(C)[C@H]1OC(C)=O
20

Please give the measured viability at 48 h, 1000 mol ratio relative to TPA for this compound: CC(=O)O[C@H]1CC[C@]2(C)[C@H]3CC=C4[C@@H]5CC(C)(C)CC[C@]5(C(=O)O)CC[C@@]4(C)[C@]3(C)CC[C@H]2C1(C)C [ACETYL OLEANOLIC ACID]
80

Param item = COC(=O)[C@]12CCC(C)(C)C[C@H]1C1=CC[C@@H]3[C@@]4(C)CC[C@H](O)C(C)(C)[C@@H]4CC[C@@]3(C)[C@]1(C)CC2 [METHYL OLEANOLATE] ; retrieve measured viability at 48 h, 1000 mol ratio relative to TPA.
50

Entry CC(=O)O[C@H]1CC[C@]2(C)[C@H]3CC=C4[C@@H]5CC(C)(C)CC[C@]5(C=O)CC[C@@]4(C)[C@]3(C)CC[C@H]2C1(C)C has what viability at 48 h, 1000 mol ratio relative to TPA?
100

Using the record for C=C(C)[C@@H]1CC[C@]2(C)CC[C@]3(C)[C@H](CC[C@@H]4[C@@]5(C)CC[C@H](OC(C)=O)C(C)(C)[C@@H]5CC[C@]43C)[C@@H]12 [LUPENYL ACETATE] , report its viability at 48 h, 1000 mol ratio relative to TPA.
80

* * *

Assay: Cytotoxicity against human Raji cells assessed as cell viability at 5000 mol ratio after 48 hrs relative to TPA
Assay type: cell-based
Details: read-out: Activity
Below, each entry is listed alongside its reported viability at 48 h, 5000 mol ratio relative to TPA.
Report only the number, with the unit % understood.

Answered examples (2):
CC1(C)CC[C@]2(C(=O)O)CC[C@]3(C)C(=CC[C@@H]4[C@@]5(C)C[C@@H](O)[C@H](O)C(C)(C)[C@@H]5CC[C@]43C)[C@@H]2C1 = 0
COC(=O)[C@]12CCC(C)(C)C[C@H]1C1=CC[C@@H]3[C@@]4(C)CC[C@H](O)C(C)(C)[C@@H]4CC[C@@]3(C)[C@]1(C)CC2 [METHYL OLEANOLATE] = 0

For the next question, use this molecule.
What value of viability at 48 h, 5000 mol ratio relative to TPA has been reported for the following molecule? CC(=O)O[C@@H]1C[C@]2(C)[C@H]3CC=C4[C@@H]5CC(C)(C)CC[C@]5(C(=O)O)CC[C@@]4(C)[C@]3(C)CC[C@H]2C(C)(C)[C@H]1OC(C)=O
0

* * *

System: Raji
Assay: Inhibition of TPA-induced EBV-early antigen activation in human Raji cells assessed as early antigen activation at 1000 mol ratio after 48 hrs relative to TPA
Format: cell-based
Parameters: scale not given: the % may be the effect or the level left
Details: human gammaherpesvirus 4
measured.attribute: Activity (%)
Field: numeric (%). Do not append units.

These solved cases illustrate the format of a correct answer.
COC(=O)[C@]12CCC(C)(C)C[C@H]1C1=CC[C@@H]3[C@@]4(C)C[C@@H](O)[C@H](O)C(C)(C)[C@@H]4CC[C@@]3(C)[C@]1(C)CC2 = 65.6
CC1(C)CC[C@]2(C)CC[C@]3(C)C(=CC[C@@H]4[C@@]5(C)C(=O)CC(=O)C(C)(C)[C@@H]5CC[C@]43C)[C@@H]2C1 = 0
C=C(C)[C@@H]1CC[C@]2(C(=O)O)CC[C@]3(C)[C@H](CC[C@@H]4[C@@]5(C)CC[C@H](OC(C)=O)C(C)(C)[C@@H]5CC[C@]43C)[C@@H]12 = 0

I'd like to know its Activity. The molecule in question is CC(=O)O[C@@H]1C[C@]2(C)[C@H]3CC=C4[C@@H]5CC(C)(C)CC[C@]5(C(=O)O)CC[C@@]4(C)[C@]3(C)CC[C@H]2C(C)(C)[C@H]1OC(C)=O
0

// returns reported Activity for input C=C(C)[C@@H]1CC[C@]2(C)CC[C@]3(C)[C@H](CC[C@@H]4[C@@]5(C)CC[C@H](OC(C)=O)C(C)(C)[C@@H]5CC[C@]43C)[C@@H]12 [LUPENYL ACETATE]
81.8

Endpoint output: Activity of COC(=O)[C@]12CCC(C)(C)C[C@H]1C1=CC[C@@H]3[C@@]4(C)CC[C@H](O)C(C)(C)[C@@H]4CC[C@@]3(C)[C@]1(C)CC2 [METHYL OLEANOLATE] . Value?
29.5

Field request: Activity | item: CC(=O)O[C@H]1CC[C@]2(C)[C@H]3CC=C4[C@@H]5CC(C)(C)CC[C@]5(C(=O)O)CC[C@@]4(C)[C@]3(C)CC[C@H]2C1(C)C
36.4

Return reported Activity; argument: C=C(C)[C@@H]1CC[C@]2(C(=O)OC)CC[C@]3(C)[C@H](CC[C@@H]4[C@@]5(C)CC[C@H](O)C(C)(C)[C@@H]5CC[C@]43C)[C@@H]12 [METHYL BETULINATE]
71.5

Activity for CC1(C)CC[C@]2(C(=O)O)CC[C@]3(C)C(=CC[C@@H]4[C@@]5(C)C[C@@H](O)[C@H](O)C(C)(C)[C@@H]5CC[C@]43C)[C@@H]2C1 ?
0

* * *

Experiment: Cytotoxicity against human Raji cells assessed as cell viability at 100 mol ratio after 48 hrs relative to TPA
Type: cell-based
Details: read-out: Activity
measured.attribute: viability at 48 h, 100 mol ratio relative to TPA

Solved entries:
CC(=O)O[C@@H]1C[C@]2(C)[C@H]3CC=C4[C@@H]5CC(C)(C)CC[C@]5(C(=O)O)CC[C@@]4(C)[C@]3(C)CC[C@H]2C(C)(C)[C@H]1OC(C)=O = 70%
C=C(C)[C@@H]1CC[C@]2(CO)CC[C@]3(C)[C@H](CC[C@@H]4[C@@]5(C)CC[C@H](O)C(C)(C)[C@@H]5CC[C@]43C)[C@@H]12 [BETULIN] = 100%
C=C(C)[C@@H]1CC[C@]2(C(=O)O)CC[C@]3(C)[C@H](CC[C@@H]4[C@@]5(C)CC[C@H](O)C(C)(C)[C@@H]5CC[C@]43C)[C@@H]12 [BETULINIC ACID] = 100%
CC(=O)O[C@H]1CC[C@]2(C)[C@H]3CC=C4[C@@H]5CC(C)(C)CC[C@]5(C(=O)O)CC[C@@]4(C)[C@]3(C)CC[C@H]2C1(C)C [ACETYL OLEANOLIC ACID] = 100%
C=C(C)[C@@H]1CC[C@]2(C)CC[C@]3(C)[C@H](CC[C@@H]4[C@@]5(C)CC[C@H](OC(C)=O)C(C)(C)[C@@H]5CC[C@]43C)[C@@H]12 [LUPENYL ACETATE] = 100%

Please look at the following molecule next.
// query viability at 48 h, 100 mol ratio relative to TPA value for entry C=C(C)[C@@H]1CC[C@]2(C(=O)O)CC[C@]3(C)[C@H](CC[C@@H]4[C@@]5(C)CC[C@H](OC(C)=O)C(C)(C)[C@@H]5CC[C@]43C)[C@@H]12
80%
